# credit: patent US10874743B2

Test: Pharmacokinetics in Sprague Dawley rats (plasma and brain concentrations, PK parameters)
Format: in vivo
Conditions: plasma; Rat (Sprague Dawley) po 10 mg/kg; individual Rat 4-6
property: Tmax (h)
Quick note: give the figure in h, leave out the unit.

Please fill in: Tmax reported for O=C1CCC(N2C(=O)c3cccc(NCCOCCOCCNCc4ccc(-n5cc(NC(=O)c6coc(-c7ccnc(NCC8CC8)c7)n6)c(C(F)F)n5)cc4)c3C2=O)C(=O)N1 (stereo not shown) [I-210] = 4

---

Assay: Pharmacokinetics in Sprague Dawley rats (plasma and brain concentrations, PK parameters)
Format: in vivo
Conditions: Sprague Dawley, rat, plasma, iv, 3 mg/kg, Sprague Dawley rat, iv 3 mg/kg, Rat 3; read-out: AUClast Rat 3
property: AUC(0-t) (ng·h/mL)
Lab book: enter the figure in ng·h/mL, no units written.

Record O=C1CCC(N2C(=O)c3cccc(NCCOCCOCCNCc4ccc(-n5cc(NC(=O)c6coc(-c7ccnc(NCC8CC8)c7)n6)c(C(F)F)n5)cc4)c3C2=O)C(=O)N1 (stereo not shown) , field AUC(0-t): 1090

---

Molecular target: UniProt:Q9NWZ3
Experiment: OCI-LY-10 degradation assay (western blot, % IRAK4 degraded after 4 hours)
Assay type: cell-based
Set-up: endogenous in cells; host or cells: OCI-LY10
Details: OCI-LY10 cells, IRAK4 degraded after 4 hours, western blot
property: OCI-LY10 % IRAK4 Degradation

compound | OCI-LY10 % IRAK4 Degradation
CC(C)(OCCNc1cccc2c1C(=O)N(C1CCC(=O)NC1=O)C2=O)C(F)CNC(=O)c1cnc(Nc2ccc3cnccc3n2)cc1NC1CC1 (stereo not drawn) | C (<20% degradation)
N#Cc1cnc2c(cnn2-c2cc(NC3CC3)c(-c3cn(CCOCCOCCOCCOCCOCCNc4cccc5c4C(=O)N(C4CCC(=O)NC4=O)C5=O)nn3)cn2)c1 (stereo not drawn) | C (<20% degradation)
NC(=O)c1nn(-c2cccc(C(=O)NCCOCCOCCNc3cccc4c3C(=O)N(C3CCC(=O)NC3=O)C4=O)c2)cc1NC(=O)c1coc(-c2ccnc(NCC(F)(F)F)c2)n1 (stereo not drawn) | B (>20-50% degradation)
N#Cc1cnc2c(cnn2-c2cc(NC3CC3)c(C(=O)NCC(F)COCCNCCOCCNc3cccc4c3C(=O)N(C3CCC(=O)NC3=O)C4=O)cn2)c1 (stereo not drawn) | B (>20-50% degradation)

Now for the compound whose OCI-LY10 % IRAK4 Degradation we want.
Value of OCI-LY10 % IRAK4 Degradation reported for the compound O=C1CCC(N2C(=O)c3cccc(NCCOCCOCCNC(=O)[C@H]4C[C@H](NC(=O)c5cnc(Nc6ccc7cnccc7n6)cc5NC5CC5)C4)c3C2=O)C(=O)N1 (stereo partly drawn) is C (<20% degradation)

---

Biological target: IRAK4 (Homo sapiens)
Assay: OCI-LY-10 MSD assay for IRAK4 DC50
Format: cell-based
Parameters: endogenous in cells; host or cells: OCI-LY10
Details: OCI-LY10 cells, 4 hr incubation, concentration required to degrade 50% of protein
property: DC50

Examples with answers:
compound | measured
CN[C@@H](C)C(=O)N[C@H](C(=O)N1CCC[C@H]1c1nc(C(=O)c2cccc(OCCOCCOCCNCc3ccc(-n4cc(NC(=O)c5coc(-c6ccnc(NCC7CC7)c6)n5)c(C(F)F)n4)cc3)c2)cs1)C1CCCCC1 | 500 to 1000 nM
COCC(=O)N[C@H](C(=O)N1Cc2cc(OCCOCCOCCOCCOCCNC(=O)c3ccc(-n4cc(NC(=O)c5coc(-c6ccnc(NCC7CC7)c6)n5)c(C(F)F)n4)cc3)ccc2CC1C(=O)N[C@@H]1CCCc2ccccc21)C(C)(C)C (some centres unmarked) | > 1000 nM
CN(CCNCCCc1ccc2c(c1)C(=O)N(C1CCC(=O)NC1=O)C2=O)C(=O)c1ccc(-n2cc(NC(=O)c3coc(-c4ccnc(NCC5CC5)c4)n3)c(C(N)=O)n2)cc1 (centres unmarked) | < 50 nM
O=C1CCC(N2C(=O)c3cccc(NCCOCCN4CC5(CN(CCOCCNCc6ccc(-n7cc(NC(=O)c8coc(-c9ccnc(NCC%10CC%10)c9)n8)c(C(F)F)n7)cc6)C5)C4)c3C2=O)C(=O)N1 (centres unmarked) | > 1000 nM

Note: attention shifts to another entry.
In plain terms, CN[C@@H](C)C(=O)N[C@H](C(=O)N1Cc2cc(OCCOCCOCCOCCOCCOCCNC(=O)c3ccc(-n4cc(NC(=O)c5coc(-c6ccnc(NCC7CC7)c6)n5)c(C(F)F)n4)cc3)ccc2C[C@H]1C(=O)N[C@@H]1CCCc2ccccc21)C(C)(C)C has a documented DC50 of 500 to 1000 nM

---

Target: IRAK4 (Homo sapiens, UniProt Q9NWZ3)
Sequence (Q9NWZ3 whole entry): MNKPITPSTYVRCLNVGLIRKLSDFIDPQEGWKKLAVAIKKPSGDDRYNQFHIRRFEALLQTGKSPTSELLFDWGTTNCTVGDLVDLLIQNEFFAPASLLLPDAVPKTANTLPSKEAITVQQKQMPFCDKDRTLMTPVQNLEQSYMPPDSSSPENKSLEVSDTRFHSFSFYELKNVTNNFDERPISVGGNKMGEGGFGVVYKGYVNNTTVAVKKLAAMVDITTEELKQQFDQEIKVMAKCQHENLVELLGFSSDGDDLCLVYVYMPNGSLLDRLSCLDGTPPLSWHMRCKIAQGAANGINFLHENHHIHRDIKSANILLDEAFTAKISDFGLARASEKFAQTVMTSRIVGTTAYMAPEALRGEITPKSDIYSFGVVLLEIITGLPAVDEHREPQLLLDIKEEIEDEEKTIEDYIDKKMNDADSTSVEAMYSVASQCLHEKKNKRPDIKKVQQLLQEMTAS
Assay: OCI-LY-10 MSD assay for IRAK4 DC50
Assay type: cell-based
Design: endogenous in cells; host or cells: OCI-LY10
Details: OCI-LY10 cells, 4 hr incubation, concentration required to degrade 50% of protein
Recorded DC50 values for a group of compounds are listed next.

Use the examples below as a reference point.
compound | measured
NC(=O)c1nn(-c2ccc(C(=O)NCCOCCOCCNc3cccc4c3C(=O)N(C3CCC(=O)NC3=O)C4=O)cc2)cc1NC(=O)c1coc(-c2ccnc(N)c2)n1 (stereo not drawn) | < 50 nM
Cn1c(=O)n(C2CCC(=O)NC2=O)c2ccc(CNC(=O)OCCCNCc3ccc(-n4cc(NC(=O)c5coc(-c6ccnc(NCC7CC7)c6)n5)c(C(F)F)n4)cc3)cc21 (stereo not drawn) | < 50 nM
O=C1CCC(N2C(=O)c3cccc(NCCCCNCCCNC(=O)c4ccc(-n5cc(NC(=O)c6coc(-c7ccnc(NCC8CC8)c7)n6)c(C(F)(F)F)n5)cc4)c3C2=O)C(=O)N1 (stereo not drawn) | > 1000 nM

Query O=C1CCC(N2C(=O)c3ccc(CCOCCN4CCC(n5cc(NC(=O)c6coc(-c7ccnc(NCC8CC8)c7)n6)c(C(F)F)n5)CC4)cc3C2=O)C(=O)N1 (stereo not drawn) yields DC50 of > 1000 nM

Noted for Cn1c(=O)n([C@H]2CCC(=O)NC2=O)c2ccc(CCCCOCCCCNCc3ccc(-n4cc(NC(=O)c5coc(-c6ccnc(NCC7CC7)c6)n5)c(C(F)F)n4)cc3)cc21 (single isomer, unassigned) : its DC50 reads 100 to 500 nM

DC50 for CN(CC1CCN(CCC#Cc2ccc3c(c2)n(C)c(=O)n3C2CCC(=O)NC2=O)CC1)C(=O)c1ccc(-n2cc(NC(=O)c3coc(-c4ccnc(NCC5CC5)c4)n3)c(C(F)F)n2)cc1 (stereo not drawn) is < 50 nM

Data point: O=C1CCC(n2c(=O)oc3c(CCCN4CCO[C@H](CNCc5ccc(-n6cc(NC(=O)c7coc(-c8ccnc(NCC9CC9)c8)n7)c(C(F)F)n6)cc5)C4)cccc32)C(=O)N1 (stereo partly drawn) ; DC50 = < 50 nM

The compound listed as O=C1CCC(N2C(=O)c3cccc(NCCNCCCCCNC(=O)c4ccc(-n5cc(NC(=O)c6coc(-c7ccnc(NC8CC8)c7)n6)c(C(F)F)n5)cc4)c3C2=O)C(=O)N1 (stereo not drawn) shows DC50 equal to < 50 nM

Input CN(CCCOCCCc1ccc2c(c1)n(C)c(=O)n2C1CCC(=O)NC1=O)C(=O)c1ccc(-n2cc(NC(=O)c3coc(-c4ccnc(NCC5CC5)c4)n3)c(C(F)F)n2)cc1 (stereo not drawn) . Output DC50: < 50 nM

---

Assay: Pharmacokinetics in Sprague Dawley rats (plasma and brain concentrations, PK parameters)
Format: in vivo
Details: Sprague Dawley, rat, plasma, po, 10 mg/kg, Sprague Dawley rat, po 10 mg/kg, plasma, 0.25 h, Rat 6; read-out: Concentration Rat 6
property: concentration at 0.25 h (ng/mL)
Write down the numeric answer in ng/mL and omit the unit.

According to the records, this compound O=C1CCC(N2C(=O)c3cccc(NCCOCCOCCNCc4ccc(-n5cc(NC(=O)c6coc(-c7ccnc(NCC8CC8)c7)n6)c(C(F)F)n5)cc4)c3C2=O)C(=O)N1 (stereo not shown) [I-210] displays concentration at 0.25 h of 0.3

---

Test: Pharmacokinetics in Sprague Dawley rats (plasma and brain concentrations, PK parameters)
Type: in vivo
Details: Sprague Dawley, rat, brain, iv, 3 mg/kg, Rat (Sprague Dawley) iv 3 mg/kg (IVB); brain; 0.25 h; Group 1, Group 2; detected value multiplied by 3; read-out: brain Actual Conc.
property: concentration at 0.25 h

Item: O=C1CCC(N2C(=O)c3cccc(NCCOCCOCCNCc4ccc(-n5cc(NC(=O)c6coc(-c7ccnc(NCC8CC8)c7)n6)c(C(F)F)n5)cc4)c3C2=O)C(=O)N1 (stereo not shown) | concentration at 0.25 h: 39.6 ng/g

---

Target: IRAK4 (Homo sapiens, UniProt Q9NWZ3)
Experiment: OCI-LY-10 degradation assay (western blot, % IRAK4 degraded after 4 hours)
Type: cell-based
Design: endogenous in cells; host or cells: OCI-LY10
Conditions: OCI-LY10 cells, 4 hours, 0.01 uM compound
property: OCI-LY10 % IRAK4 Degradation (0.01 uM)

The examples below pair each entry with its known result.
compound | OCI-LY10 % IRAK4 Degradation (0.01 uM)
NC(=O)c1nn(-c2ccc(CNCCCCCCCCCc3cccc4c3C(=O)N(C3CCC(=O)NC3=O)C4=O)cc2)cc1NC(=O)c1coc(-c2ccnc(NCC3CC3)c2)n1 (stereo not shown) | C (<20% degradation)
NC(=O)c1nn(-c2ccc(C(=O)NCCOCCOCCOCCOCCCc3cccc4c3C(=O)N(C3CCC(=O)NC3=O)C4=O)cc2)cc1NC(=O)c1coc(-c2ccnc(NCC(F)(F)F)c2)n1 (stereo not shown) | C (<20% degradation)
O=C1CCC(N2C(=O)c3ccc(N4CCN(CCOCCNCc5ccc(-n6cc(NC(=O)c7coc(-c8ccnc(NCC9CC9)c8)n7)c(C(F)F)n6)cc5)CC4)cc3C2=O)C(=O)N1 (stereo not shown) | C (<20% degradation)
NC(=O)c1nn(-c2ccc(CNCCOCCOCCOCCCc3cccc4c3CN(C3CCC(=O)NC3=O)C4=O)cc2)cc1NC(=O)c1coc(-c2ccnc(NCC3CC3)c2)n1 (stereo not shown) | B (>20-50% degradation)
O=C1CCC(N2C(=O)c3cccc(NC4CCN(CCOCCOCCNC(=O)c5ccc(-n6cc(NC(=O)c7coc(-c8ccnc(NCC9CC9)c8)n7)c(C(F)F)n6)cc5)CC4)c3C2=O)C(=O)N1 (stereo not shown) | C (<20% degradation)
O=C1CCC(N2C(=O)c3cccc(NCCOCCN4CC5(CN(CCOCCNCc6ccc(-n7cc(NC(=O)c8coc(-c9ccnc(NCC%10CC%10)c9)n8)c(C(F)F)n7)cc6)C5)C4)c3C2=O)C(=O)N1 (stereo not shown) | C (<20% degradation)
CN(CCOCCCc1cccc2c1C(=O)N(C1CCC(=O)NC1=O)C2=O)Cc1ccc(-n2cc(NC(=O)c3coc(-c4ccnc(NCC5CC5)c4)n3)c(C(F)F)n2)cc1 (stereo not shown) | C (<20% degradation)
Cn1c(=O)n(C2CCC(=O)NC2=O)c2ccc(CCCOCCOCCNCc3ccc(-n4cc(NC(=O)c5coc(-c6ccnc(NCC(F)(F)F)c6)n5)c(C(N)=O)n4)cc3)cc21 (stereo not shown) | C (<20% degradation)
O=C1CCC(N2C(=O)c3ccc(NCCOCCN4CC5(CN(CCOCCNCc6ccc(-n7cc(NC(=O)c8coc(-c9ccnc(NCC%10CC%10)c9)n8)c(C(F)F)n7)cc6)C5)C4)cc3C2=O)C(=O)N1 (stereo not shown) | C (<20% degradation)
NC(=O)c1nn(CCOCCOCCOCCOCCNc2cccc3c2C(=O)N(C2CCC(=O)NC2=O)C3=O)cc1NC(=O)c1coc(-c2ccnc(NCC3CC3)c2)n1 (stereo not shown) | B (>20-50% degradation)

Noted OCI-LY10 % IRAK4 Degradation (0.01 uM) for O=C1CCC(N2C(=O)c3ccc(OCc4cn(CCOCCOCCNCc5ccc(-n6cc(NC(=O)c7coc(-c8ccnc(NCC9CC9)c8)n7)c(C(F)F)n6)cc5)nn4)cc3C2=O)C(=O)N1 (stereo not shown) , tested on IRAK4 (Homo sapiens, UniProt Q9NWZ3): C (<20% degradation)

// compound O=C1CCC(N2C(=O)c3cccc(CCCNC(=O)c4ccc(-n5cc(NC(=O)c6coc(-c7ccncc7)n6)c(C(F)F)n5)cc4)c3C2=O)C(=O)N1 (stereo not shown) , assay IRAK4 (Homo sapiens, UniProt Q9NWZ3), OCI-LY10 % IRAK4 Degradation (0.01 uM) value: C (<20% degradation)
